EXPERIMENTAL_SYSTEM: AY502 duplication/D816G KIT (Homo sapiens, UniProt P10721, D816G/DUP502-503)
Construct: V5 (vector-encoded)
Sequence (P10721 with tags, fused parts or gaps DUP502-503/D816G): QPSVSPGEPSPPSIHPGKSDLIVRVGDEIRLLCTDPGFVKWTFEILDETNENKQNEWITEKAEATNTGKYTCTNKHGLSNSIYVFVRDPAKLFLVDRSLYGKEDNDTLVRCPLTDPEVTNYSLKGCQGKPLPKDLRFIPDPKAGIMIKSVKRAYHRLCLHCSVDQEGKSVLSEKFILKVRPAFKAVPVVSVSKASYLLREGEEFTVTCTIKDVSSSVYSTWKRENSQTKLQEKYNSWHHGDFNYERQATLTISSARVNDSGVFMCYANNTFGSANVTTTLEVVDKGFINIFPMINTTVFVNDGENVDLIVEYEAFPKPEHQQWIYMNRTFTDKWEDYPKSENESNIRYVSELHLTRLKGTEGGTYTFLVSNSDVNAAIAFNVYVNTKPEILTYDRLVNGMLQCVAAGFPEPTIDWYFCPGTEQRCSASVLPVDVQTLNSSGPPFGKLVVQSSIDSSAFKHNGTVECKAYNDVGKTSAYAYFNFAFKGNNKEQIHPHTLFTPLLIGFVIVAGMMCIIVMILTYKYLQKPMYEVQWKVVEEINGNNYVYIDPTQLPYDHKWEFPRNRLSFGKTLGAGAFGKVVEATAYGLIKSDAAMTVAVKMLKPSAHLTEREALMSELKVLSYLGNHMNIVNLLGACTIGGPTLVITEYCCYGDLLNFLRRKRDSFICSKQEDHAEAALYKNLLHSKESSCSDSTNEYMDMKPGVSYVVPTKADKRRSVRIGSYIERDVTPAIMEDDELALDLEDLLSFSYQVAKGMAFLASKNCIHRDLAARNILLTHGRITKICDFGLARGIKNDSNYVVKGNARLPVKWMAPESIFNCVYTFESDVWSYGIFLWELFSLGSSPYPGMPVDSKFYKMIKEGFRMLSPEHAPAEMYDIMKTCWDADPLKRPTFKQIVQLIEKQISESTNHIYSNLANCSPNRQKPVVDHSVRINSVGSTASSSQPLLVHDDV
ASSAY_DETAILS: CHO K1 phospho-KIT ELISA
CONDITIONS_USED: transient transfected CHO K1 cells, phospho-c-KIT (Tyr719), read-out: KIT kinase domain mutations (primary/secondary): AY502 duplication / D816G
QUANTITY_MEASURED: IC50

Result for CCn1c(=O)c(-c2cc(NC(=O)Nc3ccccc3)c(F)cc2C)cc2cnc(NC)cc21 [Example 23] , tested on AY502 duplication/D816G KIT (Homo sapiens, UniProt P10721, D816G/DUP502-503), IC50: 10 to 100 nM
